Test: Selectivity index, ratio of CC50 for human TZM-bl cells to IC50 for HIV-1 3B infected in human TZM-bl cells
Format: toxicity, cell-based
Ratio CC50/IC50: recorded values
Quick one: just the number, no unit, thanks!

| compound | Ratio CC50/IC50 |
| --- | --- |
| Cc1cc2c(c(O)c1-c1c(C)cc3c(c1O)/C(=C/NC(CC(=O)[O-])C(=O)NC(C)C(=O)[O-])C(=O)C(O)=C3C(C)C)/C(=C/NC(CC(=O)[O-])C(=O)NC(C)C(=O)[O-])C(=O)C(O)=C2C(C)C.[Na+].[Na+].[Na+].[Na+] (single isomer, unassigned; (-)) | 34.1 |
| Cc1cc2c(c(O)c1-c1c(C)cc3c(c1O)/C(=C/N[C@H](C(=O)[O-])C(C)C)C(=O)C(O)=C3C(C)C)/C(=C/N[C@H](C(=O)[O-])C(C)C)C(=O)C(O)=C2C(C)C.[Na+].[Na+] (stereo in doubt; (+)-9b) | 10.78 |
| Cc1cc2c(c(O)c1-c1c(C)cc3c(c1O)/C(=C/NC(C)C(=O)NC(Cc1ccccc1)C(=O)[O-])C(=O)C(O)=C3C(C)C)/C(=C/NC(C)C(=O)NC(Cc1ccccc1)C(=O)[O-])C(=O)C(O)=C2C(C)C.[Na+].[Na+] (stereo in doubt; (-)-5a) | 20.57 |

Next compound, please.
## Task Supply measured Ratio CC50/IC50 of Cc1cc2c(c(O)c1-c1c(C)cc3c(c1O)/C(=C/NC(C)S(=O)(=O)[O-])C(=O)C(O)=C3C(C)C)/C(=C/NC(C)S(=O)(=O)[O-])C(=O)C(O)=C2C(C)C.[Na+].[Na+] (single isomer, unassigned; (+)) in your reply.
## Result 27.81

----------
Assay: Spermicidal activity against mouse sperm assessed as motility of sperm at 100 uM after 1 hr by hemocytometric analysis
Format: ADME
assay readout: Activity

| molecule | result |
| --- | --- |
| Cc1cc2c(c(O)c1-c1c(C)cc3c(c1O)/C(=C/NC(C)C(=O)NC(C)C(=O)[O-])C(=O)C(O)=C3C(C)C)/C(=C/NC(C)C(=O)NC(C)C(=O)[O-])C(=O)C(O)=C2C(C)C.[Na+].[Na+] (single isomer, unassigned; (-)) | Non-Toxic |
| Cc1cc2c(c(O)c1-c1c(C)cc3c(c1O)/C(=C/NC(C)S(=O)(=O)[O-])C(=O)C(O)=C3C(C)C)/C(=C/NC(C)S(=O)(=O)[O-])C(=O)C(O)=C2C(C)C.[Na+].[Na+] (single isomer, unassigned; (-)) | Non-Toxic |
| Cc1cc2c(c(O)c1-c1c(C)cc3c(c1O)/C(=C/N[C@@H]1[C@@H](O)[C@H](O)[C@@H](CO)O[C@H]1O)C(=O)C(O)=C3C(C)C)/C(=C/N[C@@H]1[C@@H](O)[C@H](O)[C@@H](CO)O[C@H]1O)C(=O)C(O)=C2C(C)C (stereo in doubt; (-)-1a) | Non-Toxic |
| Cc1cc2c(C(C)C)c(O)c(O)c(C=O)c2c(O)c1-c1c(C)cc2c(C(C)C)c(O)c(O)c(C=O)c2c1O [GOSSYPOL] | Toxic |

----------
Ratio CC50/IC50: recorded values
Assay: Selectivity index, ratio of CC50 for human TZM-bl cells to IC50 for HIV-1 3B infected in human TZM-bl cells
Format: toxicity, cell-based
Quick one: just the number, no unit, thanks!

| molecule | Ratio CC50/IC50 |
| --- | --- |
| Cc1cc2c(c(O)c1-c1c(C)cc3c(c1O)/C(=C/N[C@@H]1[C@@H](O)[C@H](O)[C@@H](CO)O[C@H]1O)C(=O)C(O)=C3C(C)C)/C(=C/N[C@@H]1[C@@H](O)[C@H](O)[C@@H](CO)O[C@H]1O)C(=O)C(O)=C2C(C)C (stereo in doubt; (-)-1a) | 32.12 |
| Cc1cc2c(c(O)c1-c1c(C)cc3c(c1O)/C(=C/N[C@@H](Cc1c[nH]c4ccccc14)C(=O)[O-])C(=O)C(O)=C3C(C)C)/C(=C/N[C@@H](Cc1c[nH]c3ccccc13)C(=O)[O-])C(=O)C(O)=C2C(C)C.[Na+].[Na+] (stereo in doubt; (+)-12b) | 6.29 |
| Cc1cc2c(c(O)c1-c1c(C)cc3c(c1O)/C(=C/NC(C)C(=O)NC(C)C(=O)NC(C)C(=O)[O-])C(=O)C(O)=C3C(C)C)/C(=C/NC(C)C(=O)NC(C)C(=O)NC(C)C(=O)[O-])C(=O)C(O)=C2C(C)C.[Na+].[Na+] (single isomer, unassigned; (-)) | 27.19 |
| Cc1cc2c(c(O)c1-c1c(C)cc3c(c1O)/C(=C/NC(C)C(=O)NC(C)C(=O)[O-])C(=O)C(O)=C3C(C)C)/C(=C/NC(C)C(=O)NC(C)C(=O)[O-])C(=O)C(O)=C2C(C)C.[Na+].[Na+] (single isomer, unassigned; (-)) | 24.99 |

Next molecule, please.
## Task Supply measured Ratio CC50/IC50 of Cc1cc2c(c(O)c1-c1c(C)cc3c(c1O)/C(=C/NC(C)C(=O)NCC(=O)[O-])C(=O)C(O)=C3C(C)C)/C(=C/NC(C)C(=O)NCC(=O)[O-])C(=O)C(O)=C2C(C)C.[Na+].[Na+] (single isomer, unassigned; (+)) in your reply.
## Result 14.28

----------
Test system: TZM
Test: Cytotoxicity against human TZM-bl cells after 72 hrs by MTT assay
Format: cell-based
Settings: tzm, 72 h
Please use the following CC50 ranges when assigning a class: low = under 40 µM, mid = from 40 µM up to 50 µM, high = 50 µM and over

Known results for compounds:
| compound | discrete label |
| --- | --- |
| Cc1cc2c(c(O)c1-c1c(C)cc3c(c1O)/C(=C/NC(C)C(=O)NC(C)C(=O)[O-])C(=O)C(O)=C3C(C)C)/C(=C/NC(C)C(=O)NC(C)C(=O)[O-])C(=O)C(O)=C2C(C)C.[Na+].[Na+] (single isomer, unassigned; (-)) | low |
| Cc1cc2c(c(O)c1-c1c(C)cc3c(c1O)/C(=C/NC(C)S(=O)(=O)[O-])C(=O)C(O)=C3C(C)C)/C(=C/NC(C)S(=O)(=O)[O-])C(=O)C(O)=C2C(C)C.[Na+].[Na+] (single isomer, unassigned; (-)) | low |
| Cc1cc2c(c(O)c1-c1c(C)cc3c(c1O)/C(=C/NC(CC(=O)[O-])C(=O)NC(C)C(=O)[O-])C(=O)C(O)=C3C(C)C)/C(=C/NC(CC(=O)[O-])C(=O)NC(C)C(=O)[O-])C(=O)C(O)=C2C(C)C.[Na+].[Na+].[Na+].[Na+] (single isomer, unassigned; (-)) | mid |
| Cc1cc2c(c(O)c1-c1c(C)cc3c(c1O)/C(=C/N[C@@H](C)C(=O)[O-])C(=O)C(O)=C3C(C)C)/C(=C/N[C@@H](C)C(=O)[O-])C(=O)C(O)=C2C(C)C.[Na+].[Na+] (stereo in doubt; (-)-8a) | high |
| Cc1cc2c(c(O)c1-c1c(C)cc3c(c1O)/C(=C/NC(C)C(=O)NC(Cc1ccccc1)C(=O)[O-])C(=O)C(O)=C3C(C)C)/C(=C/NC(C)C(=O)NC(Cc1ccccc1)C(=O)[O-])C(=O)C(O)=C2C(C)C.[Na+].[Na+] (stereo in doubt; (-)-5a) | low |
| CC[C@H](C)[C@H](N/C=C1\C(=O)C(O)=C(C(C)C)c2cc(C)c(-c3c(C)cc4c(c3O)/C(=C/N[C@H](C(=O)[O-])[C@@H](C)CC)C(=O)C(O)=C4C(C)C)c(O)c21)C(=O)[O-].[Na+].[Na+] (stereo in doubt; (-)-11a) | high |
| Cc1cc2c(c(O)c1-c1c(C)cc3c(c1O)/C(=C/NCC(=O)NCC(=O)NCC(=O)[O-])C(=O)C(O)=C3C(C)C)/C(=C/NCC(=O)NCC(=O)NCC(=O)[O-])C(=O)C(O)=C2C(C)C.[Na+].[Na+] (stereo in doubt; (-)-6a) | mid |
| Cc1cc2c(c(O)c1-c1c(C)cc3c(c1O)/C(=C/N[C@@H](Cc1c[nH]c4ccccc14)C(=O)[O-])C(=O)C(O)=C3C(C)C)/C(=C/N[C@@H](Cc1c[nH]c3ccccc13)C(=O)[O-])C(=O)C(O)=C2C(C)C.[Na+].[Na+] (stereo in doubt; (-)-12a) | mid |
| Cc1cc2c(c(O)c1-c1c(C)cc3c(c1O)/C(=C/N[C@@H](CC(C)C)C(=O)[O-])C(=O)C(O)=C3C(C)C)/C(=C/N[C@@H](CC(C)C)C(=O)[O-])C(=O)C(O)=C2C(C)C.[Na+].[Na+] (stereo in doubt; (-)-10a) | high |
| Cc1cc2c(c(O)c1-c1c(C)cc3c(c1O)/C(=C/N[C@@H](Cc1ccccc1)C(=O)O)C(=O)C(O)=C3C(C)C)/C(=C/N[C@@H](Cc1ccccc1)C(=O)O)C(=O)C(O)=C2C(C)C (stereo in doubt; (-)-13a) | low |

## Task Band for the recorded CC50 of Cc1cc2c(c(O)c1-c1c(C)cc3c(c1O)/C(=C/N[C@@H]1[C@@H](O)[C@H](O)[C@@H](CO)O[C@H]1O)C(=O)C(O)=C3C(C)C)/C(=C/N[C@@H]1[C@@H](O)[C@H](O)[C@@H](CO)O[C@H]1O)C(=O)C(O)=C2C(C)C (stereo in doubt; (-)-1a) ?
## Result low
